Assay: Pharmacokinetic evaluation in SD rats after oral administration by single gavage
Assay type: in vivo
Conditions: rat; female SD rats, PO 75 mg/kg, plasma
parameter: Tmax (h)

(a) NS(=O)(=O)NCCONc1nonc1/C(=N/O)Nc1ccc(F)c(Br)c1
(b) NS(=O)(=O)NC1(CONc2nonc2/C(=N/O)Nc2ccc(F)c(Br)c2)CC1
input: Of a and b , which one carries the higher reported Tmax? Please indicate the selected item by its label.
output: a

----------
Experiment: Pharmacokinetic evaluation in SD rats after oral administration by single gavage
Type: in vivo
Conditions: rat; female SD rats, PO 75 mg/kg, plasma
parameter: AUC(0-inf) (ng·h/mL)

In the examples that follow, each entry is paired with its recorded AUC(0-inf).
input: // AUC(0-inf) lookup, key: NS(=O)(=O)NC1(CONc2nonc2/C(=N/O)Nc2ccc(F)c(Br)c2)CC1
output: 1990

input: Would you mind doing NS(=O)(=O)NCCNc1nonc1C(=NO)Nc1ccc(F)c(Br)c1 [INCB024360, Epacadostat, reference compound] as well?
output: 11300

(a) NS(=O)(=O)NCCONc1nonc1/C(=N/O)Nc1ccc(F)c(Br)c1
(b) O=C(NCCONc1nonc1/C(=N/O)Nc1ccc(F)c(Br)c1)Nc1cc(F)cc(F)c1
input: Hello, I am sorting some records. Could you say if a or b has the smaller AUC(0-inf) value? Give the label under which the chosen entry appears.
output: b
(b: 7540 ng·h/mL, a: 18700 ng·h/mL)

----------
Experiment: Pharmacokinetic evaluation in SD rats after oral administration by single gavage
Format: in vivo
Conditions: rat; female SD rats, PO 75 mg/kg, plasma
parameter: Cmax (ng/mL)

# count of solved cases: 2
input: For NS(=O)(=O)NC1(CONc2nonc2/C(=N/O)Nc2ccc(F)c(Br)c2)CC1 , what is its reported Cmax?
output: 3330

input: // repeat for NS(=O)(=O)NCCNc1nonc1C(=NO)Nc1ccc(F)c(Br)c1 [INCB024360, Epacadostat, reference compound] and report
output: 3410

(P) O=C(NCCONc1nonc1/C(=N/O)Nc1ccc(F)c(Br)c1)Nc1cc(F)cc(F)c1
(Q) NS(=O)(=O)NCCONc1nonc1/C(=N/O)Nc1ccc(F)c(Br)c1
input: // which entry reports the smaller Cmax, P or Q ? Could you answer with the label of the item you picked?
output: P
(P: 4240 ng/mL, Q: 7240 ng/mL)

----------
Experiment: Pharmacokinetic evaluation in SD rats after oral administration by single gavage
Type: in vivo
Conditions: rat; male SD rats, PO 75 mg/kg, plasma; read-out: t½ (converted)
parameter: half-life (h)

input: Field request: half-life | item: NS(=O)(=O)NCCONc1nonc1/C(=N/O)Nc1ccc(F)c(Br)c1
output: 2.12

input: Try this compound too: NS(=O)(=O)NC1(CONc2nonc2/C(=N/O)Nc2ccc(F)c(Br)c2)CC1
output: 1.98

input: Follow-up entry: NS(=O)(=O)NCCNc1nonc1C(=NO)Nc1ccc(F)c(Br)c1 [INCB024360, Epacadostat, reference compound]
output: 2.24

input: Now consider O=C(NCCONc1nonc1/C(=N/O)Nc1ccc(F)c(Br)c1)Nc1cc(F)cc(F)c1 .
output: 1.67

----------
Test: Pharmacokinetic evaluation in SD rats after oral administration by single gavage
Format: in vivo
Details: rat; male SD rats, PO 75 mg/kg, plasma
parameter: Tmax (h)

input: // Tmax lookup, key: O=C(NCCONc1nonc1/C(=N/O)Nc1ccc(F)c(Br)c1)Nc1cc(F)cc(F)c1
output: 1

input: Please do the same for NS(=O)(=O)NC1(CONc2nonc2/C(=N/O)Nc2ccc(F)c(Br)c2)CC1 as well.
output: 1

(a) NS(=O)(=O)NCCONc1nonc1/C(=N/O)Nc1ccc(F)c(Br)c1
(b) NS(=O)(=O)NCCNc1nonc1C(=NO)Nc1ccc(F)c(Br)c1 [INCB024360, Epacadostat, reference compound]
input: Between a and b , which one shows the larger Tmax value? Which one? Tell me its label.
output: a
(a: 1 h, b: 0.5 h)

Value source: patent US11214554B2
